Target: Toll-like receptor 2 (Homo sapiens)
Assay: Agonist activity at human TLR2 expressed in HEK293 cells assessed as NFkappaB translocation at 10 uM after 12 hrs by secretory alkaline phosphatase reporter gene assay
Type: functional, cell-based
Calls of active or inactive are those of the source. The rule behind the calls is not given here.
assay.endpoint: Activity

For the molecule CCCCCCCCCCCCCCN(CCCCCCCCCCCCCC)CC(=O)OCCSC[C@H](N)C(=O)N[C@@H](CO)C(=O)OC , give its reported Activity. inactive

For the molecule CCCCCCCCCCCCCCNCC(=O)OCCSC[C@H](N)C(=O)N[C@@H](CO)C(=O)OC , give its reported Activity. inactive

For the molecule COC(=O)[C@H](CO)NC(=O)[C@@H](N)CSCCOC(=O)c1ccc(-c2ccc(-c3ccccc3)cc2)cc1 , give its reported Activity. inactive
